Details: Liquid; pulse-heating method
Numbers after ± are expanded uncertainties.
measurementKind: Critical pressure

// worked examples, Critical pressure included
Returns the measured Critical pressure for the input compound. Input: OCCCCCCCCO 2700 ± 160 kPa

Can you check OCCCCCCCCCCO next? 2200 ± 160 kPa

Can you check OCCCCCCCCCCCCO [1,12-dihydroxydodecane] next? 1930 ± 160 kPa

Can you check OCCCCCO next? 4000 ± 160 kPa

In the following, a different compound is considered.
Returns the measured Critical pressure for the input compound. Input: OCCCCCCCCCO 2400 ± 160 kPa

====

Listed below: Critical temperature values for each entry.
Settings: Liquid; pulse-heating method
± gives the expanded uncertainty stated by the source.
Kindly write the number and append the unit.

// worked examples, Critical temperature included
Returns the measured Critical temperature for the input compound. Input: OCCCCCCCCO 752 ± 24 K

Can you check OCCCCCCCCCO next? 760 ± 24 K

Can you check OCCCCCO next? 731 ± 24 K

Can you check OCCCCCCCCCCCCO [1,12-dihydroxydodecane] next? 798 ± 24 K

In the following, a different compound is considered.
Returns the measured Critical temperature for the input compound. Input: OCCCCCCCCCCO 770 ± 24 K
